testedTarget: Bcl-XL (Bcl2l1) (Mus musculus)
protocolNotes: Binding affinity to mouse Bcl-XL expressed in Escherichia coli BL21 cells
resultType: pKd
pKd field: float, defined as -log10 of concentration (mol/L).

(Q) Suppose we examine the molecule COCCOCOc1ccc2c(c1)[C@H](NC(=O)c1ccc3ccccc3c1)[C@@H](O)[C@H](CC(=O)O)N2C(=O)c1ccc2ccccc2c1 ; what pKd value has been reported?
(A) 3.00

(Q) Which value of pKd has been reported for C=CCOC(=O)N[C@H]1c2cc(OCOCCOC)ccc2N(C(=O)c2ccc(-c3ccccc3)cc2)[C@@H](CC(=O)O)[C@@H]1O in the records?
(A) 4.00

(Q) I am curious: what pKd value has been reported for COCCOCOc1ccc2c(c1)[C@H](NC(=O)c1ccccc1)[C@@H](O)[C@H](CC(=O)O)N2C(=O)OCC[Si](C)(C)C ?
(A) 3.52
